Reference for the values: patent US20140348966A1

Assignment: determine reported ORAC assay for the given molecules.
Test: oxygen radical absorbance capacity (ORAC) assay
Format: biochemical
Settings: isolated and reference compounds
Procedure: ORAC assay was carried out according to the method of Ou, G. and colleagues (1993) with some modifications. Trolox and FL were used as a standard and a fluorescent probe respectively. Free radicals were produced by AAPH to oxidize FL. […] The reaction mixture was incubated at 37° C. for 30 min Afterward s, fluorescence was measured every 90 sec at the excitation of 485 nm and the emission of 520 nm using FLUOstar OPTIMA. […] The background signal was determined using the first 3 cycles. […]
Output spec: scalar in μmol TE/μmol, unitless text.

In: Identify ORAC assay associated with the molecule O=c1c(O)c(-c2ccc(O)c(O)c2)oc2cc(O)cc(O)c12 [quercetin]
Out: 5.61

In: Identify ORAC assay associated with the molecule O=C1c2c(O)cc(O)cc2O[C@H](c2ccc(O)c(O)c2)[C@H]1O [Compound 6, (+)-(2R,3R)-Taxifolin]
Out: 7.63

In: Identify ORAC assay associated with the molecule O=C1c2c(O)cc(O)c([C@@H]3C(=O)c4c(O)cc(O)cc4O[C@H]3c3ccc(O)cc3)c2O[C@H](c2ccc(O)c(O)c2)[C@H]1O [Compound 4, (2R,3S,2″R,3″R)-GB-2]
Out: 12.10

In: Identify ORAC assay associated with the molecule Oc1cc(O)c2c(c1)O[C@H](c1ccc(O)c(O)c1)[C@H](O)C2 [(−)-epicatechin]
Out: 9.65

In: Identify ORAC assay associated with the molecule O=C1c2c(cc(O)c([C@@H]3OC(CO)[C@@H](O)[C@H](O)C3O)c2O)O[C@H](c2ccc(O)cc2)[C@H]1O (stereo partly shown) [Compound 2]
Out: 4.23

In: Identify ORAC assay associated with the molecule O=C1CC(c2ccc(O)cc2)Oc2cc(O)cc(O)c21 (racemic) [(±)-naringenin]
Out: 3.96

In: Identify ORAC assay associated with the molecule O=C1c2c(O)cc(O)c([C@@H]3C(=O)c4c(O)cc(O)cc4O[C@H]3c3ccc(O)c(O)c3)c2O[C@H](c2ccc(O)c(O)c2)[C@H]1O [Compound 3, (2R,3S,2″R,3″R)-manniflavanone]
Out: 13.73

---

System: guinea pig distal colon
Test: fecal pellet propulsion motility assay in isolated distal colon (GIMM)
Details: intraluminal delivery, 5 min; extract 2 g bark powder/100 mL Krebs; 5-HT 0.5 μmol/L, RS-56812 50 nmol/L, cisapride 100 nmol/L, CJ-033466 300 nmol/L, GR-113808 5 μM
Structures can show the parent of a compound that is named as a salt.
Assignment: determine reported pellet propulsion, percent of normalized baseline pellet velocity for the given molecules.
Output spec: scalar in %, unitless text.

In: Identify pellet propulsion, percent of normalized baseline pellet velocity associated with the molecule Cc1cn2c(N)c(Cl)cc(C(=O)NCC3CCN(CC(C)C)CC3)c2n1 [CJ-033466]
Out: 132.7

In: Identify pellet propulsion, percent of normalized baseline pellet velocity associated with the molecule CN1C2CCCC1CC(NC(=O)c1nn(C)c3ccccc13)C2.Cl (stereo not drawn) [granisetron, granisetron hydrochloride]
Out: 99.3

In: Identify pellet propulsion, percent of normalized baseline pellet velocity associated with the molecule NCCc1c[nH]c2ccc(O)cc12 [Compound 5-HT, Serotonin hydrochloride]
Out: 118.3

In: Identify pellet propulsion, percent of normalized baseline pellet velocity associated with the molecule Cn1cc(C(=O)C(=O)NC2CN3CCC2CC3)c2ccccc21 (stereo not drawn) [RS-56812]
Out: 119.7

In: Identify pellet propulsion, percent of normalized baseline pellet velocity associated with the molecule Cn1cc(C(=O)OCC2CCN(CCNS(C)(=O)=O)CC2)c2ccccc21 [GR-113808]
Out: 109.3

In: Identify pellet propulsion, percent of normalized baseline pellet velocity associated with the molecule COc1cc(N)c(Cl)cc1C(=O)NC1CCN(CCCOc2ccc(F)cc2)CC1OC (stereo not drawn) [cisapride, Cisapride]
Out: 115.6
